Numbers sourced from patent US20240016777A1.

Target: SARS-CoV-2 M^pro (Severe acute respiratory syndrome coronavirus 2 (2019-nCoV) (SARS-CoV-2), UniProt P0DTD1)
Assay: biochemical
Conditions: compounds evaluated at 0.015-300 μM; read-out: IC50
Listing of recorded pIC50 by entry.
pIC50 field: float, defined as -log10 of concentration (mol/L).

Some compounds with known pIC50 results, for comparison:
CC(C)=CCC/C(C)=C\Cc1c(O)cc(O)c2c1O[C@H](c1ccc(O)cc1O)CC2=O : 4.20
CC(C)=CCCC1=C[C@@H](c2c(O)cc3oc(-c4ccc(O)cc4O)cc(=O)c3c2O)[C@H](C(=O)c2ccc(O)cc2O)[C@@H](c2ccc(O)cc2O)C1 : 4.77

For the next question, use this compound.
Sample C[C@@H]1O[C@@H](OC[C@H]2O[C@@H](Oc3c(-c4ccc(O)cc4)oc4cc(O)cc(O)c4c3=O)[C@H](O)[C@@H](O)[C@H]2O)[C@H](O)[C@H](O)[C@H]1O — what was its pIC50? 5.15
